The reported measurements were obtained from patent US9056858B2.

Molecular target: CCR1 (Homo sapiens, UniProt P32246)
Sequence (P32246 1-355): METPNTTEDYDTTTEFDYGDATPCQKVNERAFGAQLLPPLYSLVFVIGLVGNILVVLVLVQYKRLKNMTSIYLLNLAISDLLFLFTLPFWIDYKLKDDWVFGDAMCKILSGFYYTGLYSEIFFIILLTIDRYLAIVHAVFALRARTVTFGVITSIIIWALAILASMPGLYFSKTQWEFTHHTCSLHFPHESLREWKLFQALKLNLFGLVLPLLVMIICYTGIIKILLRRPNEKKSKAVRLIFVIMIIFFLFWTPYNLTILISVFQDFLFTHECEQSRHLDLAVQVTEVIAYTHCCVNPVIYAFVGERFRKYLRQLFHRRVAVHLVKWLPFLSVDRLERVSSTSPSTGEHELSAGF
Assay: functional cellular assay measuring calcium flux in CCR1 transfected cells (block of CCR1/MIP-1α interaction)
Conditions: cells stably expressing recombinant CCR1 and G-alpha-16, MIP-1alpha added at EC80
pIC50: −log10 of the molar value.
Listing: pIC50 of selected compounds
REPORTED PROPERTY: pIC50

* CS(=O)(=O)c1cc(C(=O)NC2(c3ccnc(S(C)(=O)=O)c3)CC2)c2cnn(-c3ccc(F)cc3)c2c1 | 8.15
* Cc1ccc(C2(NC(=O)c3cncc4c3cnn4-c3ccc(F)cc3)CC2)cc1 | 7.85
* COC(=O)CCS(=O)(=O)c1ccc(C2(NC(=O)c3cncc4c3cnn4-c3ccc(F)cc3)CC2)cn1 | 8.00
* O=C(NC1(c2cc(Cl)ccn2)CC1)c1cncc2c1cnn2-c1ccc(F)cc1 | 7.77
* CS(=O)(=O)c1cnc(C2(NC(=O)c3cncc4c3cnn4-c3ccc(F)cc3)CC2)nc1 | 7.85
* CS(=O)(=O)c1cc(C2(NC(=O)c3cc(I)cc4c3cnn4-c3ccc(F)cc3)CC2)ccn1 | 7.89
